# Tested on: Hepatitis C virus
# METHOD SUMMARY: Antiviral activity against recombinant HCV genotype 2a JFH1 infected in human […] for 5 hrs measured on day 3 post infection by luciferase reporter gene assay
# Format: functional, organism-based, Hepacivirus hominis
# MEASUREMENT CONDITIONS: JFH-1, Huh-7
MEASUREMENT KIND: EC50 (µM)
Write the value in µM as a bare number.

NC(=O)c1ncn([C@@H]2O[C@H](CO)[C@@H](O)[C@H]2O)n1
16.3
COc1ccc(N(C(=O)c2cc(C)ccc2C)C(C(=O)NC2CCCCC2)c2ccc([N+](=O)[O-])cc2)cc1OC (stereo unspecified)
7.9
COc1ccc(CCC(=O)N(c2ccc(OC)c(OC)c2)C(C(=O)NC2CCCCC2)c2ccc(Cl)cc2)cc1 (stereo unspecified)
31.1

Request: Entry under review: COc1cc(C(C(=O)NC2CCCCC2)N(C(=O)Cc2c[nH]c3ccccc23)c2ccc(C(C)C)cc2)cc(OC)c1OC (stereo unspecified) . Reported EC50?
Response: 5.2

Request: So what's the measured EC50 for this one? COc1cccc(CCN(C(=O)c2ccc(Cl)nc2)C(C(=O)NC2CCCCC2)c2ccc([N+](=O)[O-])cc2)c1 (stereo unspecified)
Response: 7.2

Request: Recorded EC50 of O=C(NC1CCCCC1)C(c1ccc(Cl)cc1)N(C(=O)Cc1c[nH]c2ccccc12)c1ccccc1 (stereo unspecified) , please.
Response: 3.3

====

# METHOD SUMMARY: Cytotoxicity against HCV genotype 1b Con1 infected human Huh7.5 cells expressing GFP-fused NS5A assessed as reduction in cell viability measured 72 hrs post infection by hoechst 33342 staining based confocal microscopy
# Set-up: species or system Huh-7
MEASUREMENT KIND: CC50 at 72 h (µM)
Your answer is read as µM, so omit the unit and give the number.

Request: Query: CC50 at 72 h; subject: COc1cc(C(C(=O)NC2CCCCC2)N(C(=O)Cc2c[nH]c3ccccc23)c2ccc(C(C)C)cc2)cc(OC)c1OC (stereo unspecified)
Response: 12.4

====

# System: Hepatitis C virus
# METHOD SUMMARY: Antiviral activity against recombinant HCV genotype 2a JFH1 infected in human […] for 5 hrs measured on day 3 post infection by luciferase reporter gene assay
# Type: functional, organism-based, Hepacivirus hominis
# MEASUREMENT CONDITIONS: JFH-1, Huh-7
Recorded pEC50 values for a group of molecules are listed next.
pEC50 here is simply -log10 of the concentration when that concentration is written in mol/L.

COc1ccc(N(C(=O)c2cccc(C)c2C)C(C(=O)NC2CCCCC2)c2ccc(O)cc2)cc1OC (stereo not drawn)
4.94
COc1ccc([N+](=O)[O-])c(C(=O)N(CCc2ccc(OC)c(OC)c2)C(C(=O)NC2CCCCC2)c2ccc([N+](=O)[O-])cc2)c1 (stereo not drawn)
4.46
COc1cc(C(C(=O)NC2CCCCC2)N(C(=O)Cc2c[nH]c3ccccc23)c2ccccc2)cc(OC)c1OC (stereo not drawn)
4.79
CC(=O)N(c1ccc(C(C)C)cc1)C(C(=O)NC1CCCCC1)c1ccc(Cl)cc1 (stereo not drawn)
4.97

Below: the item to evaluate.
Request: If you can, please state the reported pEC50 value of COc1cccc(CCC(=O)N(c2ccc(OC)c(OC)c2)C(C(=O)NC2CCCCC2)c2ccc(O)cc2)c1 (stereo not drawn) .
Response: 4.81
